The measured values listed here are drawn from paper PMC4298791.

Biological target: CREBBP bromodomain (Homo sapiens, UniProt Q92793)
Construct: amplify the bromodomain region of the; made in house
Sequence (Q92793 1085-1192 limits assumed): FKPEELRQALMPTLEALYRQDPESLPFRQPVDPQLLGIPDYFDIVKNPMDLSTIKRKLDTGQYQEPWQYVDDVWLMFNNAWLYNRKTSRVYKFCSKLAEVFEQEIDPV
Experiment: AlphaScreen peptide displacement assay
Type: binding
Conditions: read-out: CREBBP IC50
Experimental: AlphaScreen Peptide Displacement Assay: Bromodomain AlphaScreen assays were carried out as previously described.11,34 All experiments were carried out in duplicate and, within a table, on the same plate. […]
recorded-endpoint: IC50 (µM)
Record the value in µM, omitting the unit from your answer.

# get_value(readout= IC50, system= CREBBP bromodomain (Homo sapiens, UniProt Q92793)) for C[C@H]1Nc2c(cccc2C(=O)NCCCN2CCCc3ccccc32)NC1=O [(R)-1]
0.76

Notebook entry, CREBBP bromodomain (Homo sapiens, UniProt Q92793) assay: IC50 of CC1Oc2c(cccc2C(=O)NCCN2CCc3ccccc32)NC1=O (stereo not drawn) = ?
77

GET /values?readout=IC50&system=CREBBP bromodomain (Homo sapiens, UniProt Q92793)&item= CC1Oc2c(cccc2C(=O)NCCCN2CCCc3ccccc32)NC1=O (stereo not drawn)
51
